Attribution: paper PMC11850406

- Assayed Target: HLA-A1101 (Homo sapiens, UniProt P04439, A114D/D185E/E176A/F33Y/L180Q/S129P/T187R)
- Construct: expressed in transfected cells; host or cells: HMy2.CIR
- Protocol Notes: cell-based
- Type: binding
- Conditions: A1101; peptide 5 μM vs FITC-labeled reference peptide 300 nM, 24 h, 4°C, flow cytometry
Below is a list of entries, each paired with its recorded 5-μM inhibition (%) value.

IVKCFNCGK [Peptide P32] :: 20.16%
SSWSNKSQK [Peptide P24] :: 20.55%
ASCDQCQLK [Peptide P38] :: 12.62%

stdin: # input sequence: SILRGGKLDK [Peptide P30] ; wanted: its 5-μM inhibition (%)
stdout: 19.77%
